From: patent US20240209076A1

Recorded kon, one value per entry.
# System Tested: human IL-6 (human, UniProt P05231 30-212)
# Sequence (P05231 30-212 limits assumed): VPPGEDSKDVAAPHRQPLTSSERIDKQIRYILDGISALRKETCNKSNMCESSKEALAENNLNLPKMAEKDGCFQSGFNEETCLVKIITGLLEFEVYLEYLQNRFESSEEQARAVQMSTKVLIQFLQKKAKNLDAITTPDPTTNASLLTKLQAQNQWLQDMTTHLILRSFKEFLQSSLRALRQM
# Experimental Protocol: SPR (Biacore), supernatant antibody on Protein A chip, IL-6 flowed, 37 C

Binder	kon / M⁻¹ s⁻¹
anti-IL-6 antibody, heavy chain I51L, G66D / light chain M32L, M50D, N52S, M88Q (antibody, human IgG1, V domains shown, Human IgG1) VH: EVQLVESGGGLVQPGGSLRLSCAASGFTFSPFAMSWVRQAPGKGLEWVAKLSPGGSWTYYSDTVTDRFTFSLDTSKSTAYLQMNSLRAEDTAVYYCARQLWGYYALDIWGQGTLVTVSS VL: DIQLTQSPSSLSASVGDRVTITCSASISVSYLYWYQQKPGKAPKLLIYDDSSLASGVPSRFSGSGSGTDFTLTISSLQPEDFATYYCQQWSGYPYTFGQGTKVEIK	1.64e+06
anti-IL-6 antibody, heavy chain T63K, G66D / light chain M32L, M50D, N52S, M88Q (antibody, human IgG1, V domains shown, Human IgG1) VH: EVQLVESGGGLVQPGGSLRLSCAASGFTFSPFAMSWVRQAPGKGLEWVAKISPGGSWTYYSDKVTDRFTFSLDTSKSTAYLQMNSLRAEDTAVYYCARQLWGYYALDIWGQGTLVTVSS VL: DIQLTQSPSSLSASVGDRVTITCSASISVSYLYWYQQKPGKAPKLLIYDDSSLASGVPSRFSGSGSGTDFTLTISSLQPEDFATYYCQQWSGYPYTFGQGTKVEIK	2.15e+06
anti-IL-6 antibody, heavy chain T63Y, G66D / light chain M32L, M50D, N52S, M88Q (antibody, human IgG1, V domains shown, Human IgG1) VH: EVQLVESGGGLVQPGGSLRLSCAASGFTFSPFAMSWVRQAPGKGLEWVAKISPGGSWTYYSDYVTDRFTFSLDTSKSTAYLQMNSLRAEDTAVYYCARQLWGYYALDIWGQGTLVTVSS VL: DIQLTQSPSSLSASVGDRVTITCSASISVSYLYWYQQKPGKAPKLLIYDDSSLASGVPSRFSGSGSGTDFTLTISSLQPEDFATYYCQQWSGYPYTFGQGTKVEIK	1.91e+06
anti-IL-6 antibody, heavy chain T63I, G66D / light chain M32L, M50D, N52S, M88Q (antibody, human IgG1, V domains shown, Human IgG1) VH: EVQLVESGGGLVQPGGSLRLSCAASGFTFSPFAMSWVRQAPGKGLEWVAKISPGGSWTYYSDIVTDRFTFSLDTSKSTAYLQMNSLRAEDTAVYYCARQLWGYYALDIWGQGTLVTVSS VL: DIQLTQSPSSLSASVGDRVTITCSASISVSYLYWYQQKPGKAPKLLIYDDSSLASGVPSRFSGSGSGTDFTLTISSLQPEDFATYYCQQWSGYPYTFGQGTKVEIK	1.55e+06
anti-IL-6 antibody, heavy chain I51Q, G66D / light chain M32L, M50D, N52S, M88Q (antibody, human IgG1, V domains shown, Human IgG1) VH: EVQLVESGGGLVQPGGSLRLSCAASGFTFSPFAMSWVRQAPGKGLEWVAKQSPGGSWTYYSDTVTDRFTFSLDTSKSTAYLQMNSLRAEDTAVYYCARQLWGYYALDIWGQGTLVTVSS VL: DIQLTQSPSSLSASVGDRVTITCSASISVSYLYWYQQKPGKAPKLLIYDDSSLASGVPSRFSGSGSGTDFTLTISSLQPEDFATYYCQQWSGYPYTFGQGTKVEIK	1.96e+06
